Measured growth of individual entries
# System: HCT-116 colon
# Method summary: NCI-60 one-dose screen, 48 h (100 = growth as untreated, 0 = no growth, -100 = all killed)
# Run parameters: 10 µM unless noted
# Method: Growth inhibition of the HCT-116 human tumor cell line is measured as a screen for anti-cancer activity. Cells are grown in 96 well plates and exposed to the test compound for 48 hours. Compounds are tested at a single concentration, which is 10^-5 M for most compounds. The reported endpoint is percent growth (GI% or GIPRCNT), where numbers from 0 - 100% represent growth inhibition, and numbers from -100% - 0 represent cell death. For example, a value of 40 represents 60% growth inhibition. […]
Compounds without any hit were thinned out: in the full panel of roughly 83,000, 20% have a hit. Activity calls are given as the source filed them. How the source made its calls: active means growth percent below 10; inactive means the rest.

Compound: N#CSCc1c(Cl)cccc1Cl
growth: 4.1% (active)

Compound: O=C1OCc2cccc3cccc1c23
growth: 104% (inactive)

Compound: CCCCCCC(C)c1ccccc1O (configuration not stated) (tested in a mixture with another compound)
growth: 111% (inactive)

Compound: C[N+](C)=c1ccc2nc3c(cc(NCCCNc4cc5oc6cc(=[N+](C)C)ccc-6nc5c5ccccc45)c4ccccc43)oc-2c1
growth: -36.9% (active)

Compound: S=C(NCCNC(=S)[S][Sn]([c]1ccccc1)([c]1ccccc1)[c]1ccccc1)[S][Sn]([c]1ccccc1)([c]1ccccc1)[c]1ccccc1
growth: -82.8% (active)

Compound: COC(=O)c1nc(=S)[nH]c(C(=O)OC)c1C(=O)c1ccccn1
growth: 17.9% (inactive)

Compound: Nc1nc(N)c2c(ccc3c2ccn3Cc2cccc([N+](=O)[O-])c2)n1
growth: -84.9% (active)

Compound: Cc1c2ccccc2c(C)c2c1ccc1ccccc12
growth: 81.3% (inactive)

Compound: NC1=CC(=O)c2ccccc2C1=O
growth: 80.8% (inactive)

Compound: CC(=O)ON=C1C=CC(=C(C#N)c2ccccc2)C=C1
growth: -13.1% (active)

Compound: NC(=O)/C=C/C(=O)c1c(Cl)cccc1Cl
growth: -100% (active)

Compound: COc1ccc(N=N/N=c2\sc3cc(OC)ccc3n2C)cc1
growth: 95.8% (inactive)

Compound: O=C1C2=C(Nc3cc([N+](=O)[O-])ccc3N2)OC1c1c2ccccc2cc2ccccc12 (configuration not stated)
growth: 15.5% (inactive)

Compound: CCC(CC)COC(=O)c1ccc(O)c(O)c1
growth: 72.6% (inactive)

Compound: N#Cc1ccc([N+](=O)[O-])o1
growth: 92.6% (inactive)

Compound: CN(C)CCOc1ccc2c(c1)C(=O)/C(=C\c1ncc([N+](=O)[O-])n1C)C2
growth: -5.59% (active)

Compound: O=C(Nc1ccc(F)cc1)ON=C1CCCCC1
growth: 99.2% [100 µM] (inactive)

* * *

# Test system: OVCAR-8 ovarian
# Method summary: NCI-60 one-dose screen, 48 h
# Run parameters: 10 µM unless noted
About 83,000 compounds went through this panel and 20% of them were active in at least one assay; those are over-represented in the sample as a whole. Activity calls are given as the source filed them. Rule for the calls: active = growth percent below 10; inactive = the rest. Where a SMILES comes first, the peptide text is derived from it. The star is where a group is joined. Trt = c1ccc(C(c2ccccc2)(c2ccccc2)*)cc1; Cbz = O=C(OCc1ccccc1)*
Classes used: true (1) for active, false (0) for inactive

Molecule: CCOC(=O)c1c(C)[nH]c(CO)c1C
Class name: false (0)
//
Molecule: CCOC(=O)/C=C/c1ccc([N+](=O)[O-])o1
Class name: false (0)
//
Molecule: CNc1ccc2c(c1)c1ccccc1n2C
Class name: false (0)
//
Molecule: Cc1c2ccccc2c(C)c2c1ccc1ccccc12
Class name: false (0)
//
Molecule: COC(=O)C(CSC(c1ccccc1)(c1ccccc1)c1ccccc1)NC(=O)C(CC(N)=O)NC(=O)OCc1ccccc1 (stereo not drawn) (Cbz-Asn-Cys(Trt)-OMe; configuration not given here)
Class name: false (0)
//
Molecule: NC(=O)/C=C/C(=O)c1c(Cl)cccc1Cl
Class name: true (1)
//
Molecule: O=C1c2ccccc2C(=O)c2sc(Nc3ccc(Cl)cc3)nc21
Class name: false (0)
//
Molecule: NC(N)=N/N=C/c1ccc([N+](=O)[O-])o1
Class name: false (0)
//
Molecule: CC(C)(C)c1ccc(O)c(C2CCCCC2)c1
Class name: false (0)
//
Molecule: COc1ccc(N=N/N=c2\sc3cc(OC)ccc3n2C)cc1
Class name: false (0)
//
Molecule: CCCCCCCCCCCCCCCCN(CC)CC
Class name: true (1)

Data provenance: PubChem BioAssay (NCI)
